I'd appreciate it if you could supply Binding Signal (absorbance at 450 nm) (absorbance at 450 nm) values for the items below.
# target_or_test_system: SARS-CoV-2-S-RBD-mmH (SARS-CoV-2)
# condition_parameters: remark: other sources report otherwise
Answer with a bare number; do not write a unit.

(Q) Look up and state reported Binding Signal (absorbance at 450 nm) (absorbance at 450 nm) for mAb11006 (antibody, V domains shown) VH: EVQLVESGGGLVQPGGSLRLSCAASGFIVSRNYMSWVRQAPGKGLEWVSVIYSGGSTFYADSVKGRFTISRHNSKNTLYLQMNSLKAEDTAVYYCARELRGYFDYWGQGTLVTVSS VL: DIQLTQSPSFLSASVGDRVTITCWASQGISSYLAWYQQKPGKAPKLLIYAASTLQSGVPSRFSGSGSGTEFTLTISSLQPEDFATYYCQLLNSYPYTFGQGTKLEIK
(A) 2.62

(Q) Look up and state reported Binding Signal (absorbance at 450 nm) (absorbance at 450 nm) for mAb11004 (antibody, V domains shown) VH: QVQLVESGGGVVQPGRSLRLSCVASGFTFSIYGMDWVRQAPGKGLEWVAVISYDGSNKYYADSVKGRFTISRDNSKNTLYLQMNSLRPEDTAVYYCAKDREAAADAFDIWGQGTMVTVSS VL: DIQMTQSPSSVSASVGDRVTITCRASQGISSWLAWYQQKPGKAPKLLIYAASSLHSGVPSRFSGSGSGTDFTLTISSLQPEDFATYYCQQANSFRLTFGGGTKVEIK
(A) 2.91

(Q) Look up and state reported Binding Signal (absorbance at 450 nm) (absorbance at 450 nm) for mAb10998 (antibody, V domains shown) VH: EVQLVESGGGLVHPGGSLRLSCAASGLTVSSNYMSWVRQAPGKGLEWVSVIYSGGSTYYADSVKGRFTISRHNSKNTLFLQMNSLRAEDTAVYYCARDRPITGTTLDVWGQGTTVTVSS VL: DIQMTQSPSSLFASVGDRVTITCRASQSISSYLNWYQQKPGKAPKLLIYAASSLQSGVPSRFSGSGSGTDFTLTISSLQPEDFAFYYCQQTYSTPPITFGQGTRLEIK
(A) 2.83

(Q) Look up and state reported Binding Signal (absorbance at 450 nm) (absorbance at 450 nm) for mAb11008 (antibody, V domains shown) VH: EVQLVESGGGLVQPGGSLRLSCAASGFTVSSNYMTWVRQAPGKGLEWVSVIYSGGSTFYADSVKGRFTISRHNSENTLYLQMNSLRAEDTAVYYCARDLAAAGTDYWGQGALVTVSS VL: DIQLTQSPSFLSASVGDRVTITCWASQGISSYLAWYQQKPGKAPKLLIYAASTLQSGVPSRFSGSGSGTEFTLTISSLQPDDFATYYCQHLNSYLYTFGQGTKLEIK
(A) 2.91
